B1: tRNA (parent)
chain: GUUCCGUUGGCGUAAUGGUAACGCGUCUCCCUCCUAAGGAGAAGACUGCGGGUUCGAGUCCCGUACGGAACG

variants of: B1; test: yeast fitness relative to wild type (ratio to wild type); higher = fitter; tRNA-Arg(CCU), competitive growth, 37 C, YPD
Fewer inactive variants are shown than the library holds.
Measured Quantity: yeast fitness

>>> experimental_value("G52A A57C A69U")
0.565
>>> experimental_value("C4A A65U")
0.719
>>> experimental_value("A42G C49U")
0.801

// for each variant below, give its yeast fitness
1. U2G C55U C62G C66A
2. C62U G67C
3. C5U C11U A15G U53A A65G
4. C4U A37C G63A
5. C27U G41C U53A C62U
6. G18A A21U C49A C60G A70U
7. C27G U32A U54G

Result:
0.577
0.917
≤ 0.5
0.593
≤ 0.5
≤ 0.5
≤ 0.5
